Please go through the items and note down their z-score.
assay_procedure: P. aeruginosa biofilm formation inhibitors, primary screen, PAO1 strain, BacTiter-Glo luminescence, LB-PBS (AID 1144)
test_settings: 12 h, higher = more signal
// return a plain number; no unit text

The compound listed as COc1ccc(C(O)C2C=CC3C(=O)N(C)C(=O)C3N2Nc2ccccc2)cc1OCc1ccccc1 (configuration not stated) shows z-score equal to -0.292

Lab note: measured z-score of O=C1N(CCS(=O)(=O)c2ccccc2)Cc2ccccc2[C@H]2OC(c3ccc(OCCCO)cc3)=N[C@@]12CCS(=O)(=O)c1ccccc1 was -0.447

response.value for CC(=O)NCCCC[C@@H]1NC(=O)[C@@H]2C[C@H](C(=O)NCCCCN(C)C)[C@H](c3ccc(O)cc3)N2C1=O (field: z-score) = -1.02

Value of z-score reported for the compound CN(C)C(=O)[C@@]1(CCC(=O)OC(C)(C)C)N=C(c2ccc(OCCCO)cc2)O[C@H]1c1ccccc1 is -0.573

Record COC(=O)C(CC#Cc1ccc2c(c1)[C@]1(C(=O)N2)[C@H](C(=O)NC[C@H](O)c2ccccc2)[C@H]2C(=O)O[C@H](c3ccccc3)[C@H](c3ccccc3)N2[C@@H]1c1ccc(OCCO)cc1)C(=O)OC , field z-score: -0.419

For record O=C(NCc1ccccc1)[C@]1(CCS(=O)(=O)c2ccccc2)N=C(c2ccc(OCCCO)cc2)O[C@@H]1c1ccccc1 the listed z-score is -0.422

Measured z-score of CC(C)N1CC=CC23O[C@@H]4C=CCOC(=O)[C@@H]4[C@H]2C(=O)N(CCO)[C@@H]3C1=O (some centres not stated) : -0.289
